Reported IC50 by item:
Test: Inhibition of alpha-glucosidase (unknown origin)
Express it in µM; write the number only.

compound | value
O=C1C[C@@H](c2ccc(O)cc2)Oc2cc(O)cc(O)c21 | 10.6

## Task Input O=C1C[C@@H](c2ccc(O)cc2)Oc2cc(O[C@@H]3O[C@H](CO)[C@@H](O)[C@H](O)[C@H]3O)cc(O)c21 , output reported IC50.
## Result 106

## Task # return recorded IC50 for entry C[C@H]1O[C@H](O[C@H]2[C@H](O)[C@@H](O)[C@@H](O[C@H]3[C@H](O)[C@@H](O)C(O)O[C@@H]3CO)O[C@@H]2CO)[C@H](O)[C@@H](O)[C@@H]1N[C@H]1C=C(CO)[C@@H](O)[C@H](O)[C@H]1O (stereo not given in full)
## Result 178
